Origin of the recorded values: patent US10287291B2

Test system: N87 (human gastric (stomach) cancer cell line)
Test: 72 hr ATP luminescence proliferation inhibition, N87
Type: cell-based
Conditions: read-out: Proliferation Inhibition of Cancer Cells EC50, N87
Procedure: Proliferation inhibition was measured using a 72 hr ATP luminescence assay (Cheng et al., U.S. Pat. No. 8,394,922 B2 (2013)). Proliferation inhibition was measured against: (a) H226 (human mesothelioma (lung) cancer cell line); (b) N87 (human gastric (stomach) cancer cell line); (c) OVCAR3 (human ovarian cancer cell line); (d) HCT116 (human colon cancer cell line); and (e) HCT116/VM46 (multidrug and paclitaxel resistant subline of HCT116).
pEC50: −log10 of the molar value.
Bucketed by reported pEC50, buckets being bottom = under 8, middle = from 8 up to 9, top = 9 and over

A selection of reference data follows.
Nc1ccc2[nH]c(C(=O)N3C[C@@H](CCl)c4c3cc(O)c3[nH]c(C(=O)N5CCNCC5)cc43)cc2c1 [Ia-25]
bottom
COc1ccc2[nH]c(C(=O)N3C[C@@H](CCl)c4c3cc(O)c3[nH]c(C(=O)N5CCN(C)CC5)cc43)cc2c1 [Ia-20]
middle
COCCOc1ccc2[nH]c(C(=O)N3C[C@@H](CCl)c4c3cc(O)c3[nH]c(C(=O)Nc5ccc(N)cc5)cc43)cc2c1 [Ia-29]
top
CNCCOc1ccc2[nH]c(C(=O)N3C[C@@H](CCl)c4c3cc(O)c3[nH]c(C(=O)N5CCOCC5)cc43)cc2c1 [Ia-17]
bottom
CC(C)CCOc1ccc2[nH]c(C(=O)N3C[C@@H](CCl)c4c3cc(O)c3[nH]c(C(=O)N5CCOCC5)cc43)cc2c1 [Ia-31]
top

Prompt line: Which class holds CN(C)CCOc1ccc2[nH]c(C(=O)N3C[C@@H](CCl)c4c3cc(O)c3[nH]c(C(=O)Nc5ccc(O)cc5)cc43)cc2c1 [Ia-27] ?
Response line: middle

Prompt line: Which class holds O=C(Nc1ccc2nc(C(=O)N3C[C@@H](CCl)c4c3cc(O)c3[nH]c(C(=O)N5CCOCC5)cc43)cn2c1)c1ccc(O)cc1 [Ib-01] ?
Response line: middle

Prompt line: Which class holds CNCCN(C)C(=O)c1cc2c3c(cc(O)c2[nH]1)N(C(=O)c1cc2cc(OC)ccc2[nH]1)C[C@H]3CCl [Ia-21] ?
Response line: middle

Prompt line: Which class holds COc1ccc2[nH]c(C(=O)N3C[C@@H](CCl)c4c3cc(O)c3[nH]c(C(=O)NCCOCCO)cc43)cc2c1 [Ia-22] ?
Response line: middle

Prompt line: Which class holds CC[C@@H](CO)NC(=O)c1cc2c3c(cc(O)c2[nH]1)N(C(=O)c1cc2cc(OC)ccc2[nH]1)C[C@H]3CCl [Ia-23] ?
Response line: middle

Prompt line: Which class holds CCCOc1ccc2[nH]c(C(=O)N3C[C@@H](CCl)c4c3cc(O)c3[nH]c(C(=O)N5CCCOCC5)cc43)cc2c1 [Ia-28] ?
Response line: top

###

Test system: HCT116 (human colon cancer cell line)
Assay: 72 hr ATP luminescence proliferation inhibition, HCT116
Assay type: cell-based
Settings: Homo sapiens, HCT-116, read-out: Proliferation Inhibition of Cancer Cells EC50, HCT116
observable: EC50 (nM)
Numbers only, in nM.

O=C(c1cc2c3c(cc(O)c2[nH]1)N(C(=O)c1cc2cc(OCC4CC4)ccc2[nH]1)C[C@H]3CCl)N1CCOCC1
0.12
COc1cc2cc(C(=O)N3C[C@@H](CCl)c4c3cc(O)c3[nH]c(C(=O)N5CCOCC5)cc43)[nH]c2c(OC)c1OC
0.033

// for each compound below, give its EC50
1. O=C(c1cc2c3c(cc(O)c2[nH]1)N(C(=O)c1cc2cc(OC4CCOCC4)ccc2[nH]1)C[C@H]3CCl)N1CCOCC1
2. O=C(c1cc2c3c(cc(O)c2[nH]1)N(C(=O)c1cc2cc(OC4CCCC4)ccc2[nH]1)C[C@H]3CCl)N1CCOCC1

Response line:
1. 0.26
2. 0.22

###

System: HCT116/VM46 (multidrug and paclitaxel resistant subline of HCT116)
Assay: 72 hr ATP luminescence proliferation inhibition, HCT116/VM46
Assay type: cell-based, human
Details: Homo sapiens, HCT-116/VM46, HCT116/VM46 cell line, read-out: Proliferation Inhibition of Cancer Cells EC50, HCT116/VM46
observable: EC50 (nM)
Give bare numbers, in nM.

// known answers, use as guide
O=C(c1cc2c3c(cc(O)c2[nH]1)N(C(=O)c1cc2cc(OCC4CC4)ccc2[nH]1)C[C@H]3CCl)N1CCOCC1 [Ia-04]
0.12
COc1ccc2[nH]c(C(=O)N3C[C@@H](CCl)c4c3cc(O)c3[nH]c(C(=O)N5CCOCC5)cc43)cc2c1 [Ia-11]
0.92
CCCOc1ccc2[nH]c(C(=O)N3C[C@@H](CCl)c4c3cc(O)c3[nH]c(C(=O)N5CCOCC5)cc43)cc2c1 [Ia-03]
0.034
O=C(c1cc2c3c(cc(O)c2[nH]1)N(C(=O)c1cc2cc(OC4CCCC4)ccc2[nH]1)C[C@H]3CCl)N1CCOCC1 [Ia-15]
0.26
O=C(c1cc2c3c(cc(O)c2[nH]1)N(C(=O)c1cc2cc(OCCC4CC4)ccc2[nH]1)C[C@H]3CCl)N1CCOCC1 [Ia-07]
0.67

// for each molecule below, give its EC50
1. O=C(c1cc2c3c(cc(O)c2[nH]1)N(C(=O)c1cc2cc(-c4ccccc4)ccc2[nH]1)C[C@H]3CCl)N1CCOCC1 [Ia-12]
2. CC(C)COc1ccc2[nH]c(C(=O)N3C[C@@H](CCl)c4c3cc(O)c3[nH]c(C(=O)N5CCOCC5)cc43)cc2c1 [Ia-05]
3. NCCOc1ccc2[nH]c(C(=O)N3C[C@@H](CCl)c4c3cc(O)c3[nH]c(C(=O)N5CCOCC5)cc43)cc2c1 [Ia-18]
4. Nc1ccc2[nH]c(C(=O)Nc3ccc4[nH]c(C(=O)N5C[C@@H](CCl)c6c5cc(O)c5[nH]c(C(=O)N7CCOCC7)cc65)cc4c3)cc2c1 [Ic-01]
5. COc1cc2cc(C(=O)N3C[C@@H](CCl)c4c3cc(O)c3[nH]c(C(=O)N5CCOCC5)cc43)[nH]c2c(OC)c1OC [Ia-30]

Response line:
1: 0.29; 2: 0.17; 3: 19; 4: 0.75; 5: 0.097

###

So I've got a bunch of compounds here, and I need their EC50 values.
Tested on: OVCAR3 (human ovarian cancer cell line)
Assay: 72 hr ATP luminescence proliferation inhibition, OVCAR3
Format: cell-based
Details: Homo sapiens, OVCAR-3, read-out: Proliferation Inhibition of Cancer Cells EC50, OVCAR3
One number for each entry, in nM.

// known answers, use as guide
COCCCOc1ccc2[nH]c(C(=O)N3C[C@@H](CCl)c4c3cc(O)c3[nH]c(C(=O)N5CCOCC5)cc43)cc2c1
0.025
CCCOc1ccc2[nH]c(C(=O)N3C[C@@H](CCl)c4c3cc(O)c3[nH]c(C(=O)N5CCOCC5)cc43)cc2c1
0.026
O=C(c1cc2c3c(cc(O)c2[nH]1)N(C(=O)c1cc2cc(OC4CCCC4)ccc2[nH]1)C[C@H]3CCl)N1CCOCC1
0.21
NCCOc1ccc2[nH]c(C(=O)N3C[C@@H](CCl)c4c3cc(O)c3[nH]c(C(=O)N5CCOCC5)cc43)cc2c1
12
O=C(c1cc2c3c(cc(O)c2[nH]1)N(C(=O)c1cc2cc(OCCO)ccc2[nH]1)C[C@H]3CCl)N1CCOCC1
2.1

// for each compound below, give its EC50
1. O=C(Nc1ccc2[nH]c(C(=O)N3C[C@@H](CCl)c4c3cc(O)c3[nH]c(C(=O)N5CCOCC5)cc43)cc2c1)c1ccc(O)cc1
2. Nc1ccc2[nH]c(C(=O)Nc3ccc4[nH]c(C(=O)N5C[C@@H](CCl)c6c5cc(O)c5[nH]c(C(=O)N7CCOCC7)cc65)cc4c3)cc2c1
3. CCOc1ccc2[nH]c(C(=O)N3C[C@@H](CCl)c4c3cc(O)c3[nH]c(C(=O)N5CCOCC5)cc43)cc2c1
4. O=C(c1cc2c3c(cc(O)c2[nH]1)N(C(=O)c1cc2cc(OCC4CC4)ccc2[nH]1)C[C@H]3CCl)N1CCOCC1
5. O=C(c1cc2c3c(cc(O)c2[nH]1)N(C(=O)c1cc2cc(OC4CCOCC4)ccc2[nH]1)C[C@H]3CCl)N1CCOCC1
6. COc1cc2cc(C(=O)N3C[C@@H](CCl)c4c3cc(O)c3[nH]c(C(=O)N5CCOCC5)cc43)[nH]c2c(OC)c1OC
7. CC(C)COc1ccc2[nH]c(C(=O)N3C[C@@H](CCl)c4c3cc(O)c3[nH]c(C(=O)N5CCOCC5)cc43)cc2c1

Response line:
1. 1.1
2. 0.89
3. 0.048
4. 0.11
5. 0.1
6. 0.032
7. 0.076

// for each compound below, give its EC50
1. Nc1ccc2[nH]c(C(=O)N3C[C@@H](CCl)c4c3cc(O)c3[nH]c(C(=O)N5CCOCC5)cc43)cc2c1
2. O=C(c1cc2c3c(cc(O)c2[nH]1)N(C(=O)c1cc2cc(-c4ccccc4)ccc2[nH]1)C[C@H]3CCl)N1CCOCC1

Response line:
1: 1.1; 2: 0.54
